// Survival rate (%) lookup, one value per entry
Tested on: human skin fibroblasts
ASSAY_PROTOCOL: Cell survival rate after transparentization treatment (trypan blue)
Type: cell-based
MEASUREMENT_SETUP: human, 30 min, 100 wt %
# unit: % | format: bare number

# COMPOUND, UNIT_STRING, Survival rate (%)
data = [
    ("OC[C@H]1O[C@@](CO)(O[C@H]2O[C@H](CO)[C@@H](O)[C@H](O)[C@H]2O)[C@@H](O)[C@@H]1O [Sucrose, sucrose, reference compound]", "%", 14),
    ("Nc1ccn([C@@H]2O[C@H](COP(=O)(O)O)[C@@H](O)[C@H]2O)c(=O)n1 [CMP, cytidine monophosphate]", "%", 53),
    ("Cc1cn([C@@H]2O[C@H](COP(=O)(O)O)[C@@H](O)[C@H]2O)c(=O)[nH]c1=O [TMP, 5-methyluridine monophosphate]", "%", 42),
]

Continue with the compound presented below.
**Q:** Please provide the recorded Survival rate (%) for OC[C@H]1O[C@H](O[C@H]2O[C@H](CO)[C@@H](O)[C@H](O)[C@H]2O)[C@H](O)[C@@H](O)[C@@H]1O [Trehalose, trehalose, reference compound] , tested on human skin fibroblasts.
**A:** 25
